- protocol summary: clinical
- condition label: female, human, in vivo, Tmax
property: Tmax
Field: value (include unit after the number)

Value of measured Tmax for the entry Cc1ccc(C(=O)C(C)CN2CCCCC2)cc1 (stereo not shown) : 1 h

---

- protocol summary: clinical
- condition label: female, human, in vivo, AUC(0-6)
property: AUC(0-t)

Value of measured AUC(0-t) for the entry Cc1ccc(C(=O)C(C)CN2CCCCC2)cc1 (stereo not shown) [Tolperisone] : 276 ng·h/mL

---

- protocol summary: clinical
- condition label: both, human, in vivo, AUC (0-6)
property: AUC(0-t) (ng·h/mL)
Number in ng·h/mL, nothing else.

Value of measured AUC(0-t) for the entry Cc1ccc(C(=O)C(C)CN2CCCCC2)cc1 (stereo not shown) [Tolperisone] : 196
